- subject of test: PI3K delta (Homo sapiens)
- Construct: for the full-length p110-d subunit are generated and fused by overlapping PCR; p85(iSH2) fusion partner (see partner chain) (N); His tag (C); Tn5 (Trichoplusia ni) or TiniPro insect cells
- Sequence (O00329 with tags, fused parts or gaps limits assumed): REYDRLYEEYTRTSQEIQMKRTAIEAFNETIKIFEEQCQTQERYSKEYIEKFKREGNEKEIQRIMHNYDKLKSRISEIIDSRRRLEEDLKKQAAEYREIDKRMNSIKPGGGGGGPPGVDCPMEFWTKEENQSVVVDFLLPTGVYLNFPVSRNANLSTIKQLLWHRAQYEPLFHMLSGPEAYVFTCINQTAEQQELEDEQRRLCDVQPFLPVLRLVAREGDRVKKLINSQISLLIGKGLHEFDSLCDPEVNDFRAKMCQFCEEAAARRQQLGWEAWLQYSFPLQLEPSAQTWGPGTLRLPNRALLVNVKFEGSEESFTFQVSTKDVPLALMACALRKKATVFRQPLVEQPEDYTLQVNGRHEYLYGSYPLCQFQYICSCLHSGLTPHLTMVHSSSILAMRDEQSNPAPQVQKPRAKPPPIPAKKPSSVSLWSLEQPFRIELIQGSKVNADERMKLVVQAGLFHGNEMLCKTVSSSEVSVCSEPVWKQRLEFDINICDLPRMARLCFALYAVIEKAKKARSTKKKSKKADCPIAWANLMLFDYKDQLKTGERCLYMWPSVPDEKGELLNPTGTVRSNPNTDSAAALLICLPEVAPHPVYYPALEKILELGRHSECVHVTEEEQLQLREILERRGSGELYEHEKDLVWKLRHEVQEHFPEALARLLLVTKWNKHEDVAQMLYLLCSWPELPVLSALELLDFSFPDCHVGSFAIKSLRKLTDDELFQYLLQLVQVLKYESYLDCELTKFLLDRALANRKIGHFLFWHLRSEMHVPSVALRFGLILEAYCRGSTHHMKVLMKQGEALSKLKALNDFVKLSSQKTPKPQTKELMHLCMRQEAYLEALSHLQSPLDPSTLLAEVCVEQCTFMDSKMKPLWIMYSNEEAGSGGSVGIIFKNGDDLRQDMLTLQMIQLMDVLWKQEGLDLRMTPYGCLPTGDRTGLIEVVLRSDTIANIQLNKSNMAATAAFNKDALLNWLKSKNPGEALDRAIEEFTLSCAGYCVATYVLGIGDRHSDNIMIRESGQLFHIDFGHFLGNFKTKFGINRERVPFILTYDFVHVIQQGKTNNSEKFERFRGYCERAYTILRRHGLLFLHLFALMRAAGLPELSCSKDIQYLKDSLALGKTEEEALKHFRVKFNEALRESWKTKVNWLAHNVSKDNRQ
- method summary: PI3K delta kinase assay (Kinase-Glo luminescence)
readout kind: IC50 (nM)

Some entries whose results are on file:
CCNc1ncc(-c2ccc3ncc4c(c3c2)n(-c2c(C)nn(C)c2C)c(=O)n4C)cc1COC : 57
Cc1nn(C(C)C)cc1-n1c(=O)n(C)c2cnc3ccc(-c4ccc(N(C)C)nc4)cc3c21 : 39
Cc1nn(C)cc1-n1c(=O)n(C)c2cnc3ccc(-c4cncc(C(C)O)c4)cc3c21 (racemic) : 19
Cc1ncc(-c2ccc3ncc4c(c3c2)n(-c2cn(C)nc2C)c(=O)n4C)cc1OC(CF)CF : 6
Cc1noc(C)c1-n1c(=O)n(C)c2cnc3ccc(-c4cnc(N)c(C(F)(F)F)c4)cc3c21 : 10
COc1ccc(-c2ccc3ncc4[nH]c(=O)n(-c5cc(C)nn5C)c4c3n2)cc1OC : 7

[1] CCn1cc(-n2c(=O)n(C)c3cnc4ccc(-c5cnc(N)c(Cl)c5)cc4c32)c(C)n1
[2] CNC(=O)c1ccc(-c2ccc3ncc4c(c3c2)n(-c2cn(C)nc2Cl)c(=O)n4C)cc1
Which entry shows the lesser value of IC50 here, 1 or 2 ? Mark your selection by writing its label.
1

[1] COCc1ncc(-c2ccc3ncc4c(c3c2)n(-c2cn(C)nc2C)c(=O)n4C)cc1OC(C)C
[2] CCOc1cc(-c2ccc3ncc4c(c3c2)n(-c2cn(C)nc2C)c(=O)n4C)ccc1OC
// which entry has the larger IC50 value, 1 or 2 ? Lab log: write the label of the selected item as the result.
2

[A] COc1ccc(-c2ccc3ncc4c(c3c2)n(-c2cn(CC(=O)O)nc2C)c(=O)n4C)cn1
[B] Cc1nn(C)cc1-n1c(=O)n(C)c2cnc3ccc(-c4ccc5c(c4)CCN5C)cc3c21
Between A and B , whose measured IC50 reads higher? Answer by stating the label of the chosen item.
B
(B: 371 nM, A: 15 nM)

[I] COc1ccc(-c2ccc3ncc4c(c3c2)n(-c2cnn(C)c2C)c(=O)n4C)cn1
[II] Cc1nn(C)cc1-n1c(=O)n(C)c2cnc3ccc(-c4cncc(N)c4)cc3c21
I or II : whose IC50 is greater? # reply format: chosen label
I

* * *

- subject of test: PI3K alpha (Homo sapiens, UniProt P42336)
- Construct: p85(iSH2) fusion partner (see partner chain) (N); His tag (C); Tn5 (Trichoplusia ni) or TiniPro insect cells
- Sequence (P42336 with tags, fused parts or gaps limits assumed): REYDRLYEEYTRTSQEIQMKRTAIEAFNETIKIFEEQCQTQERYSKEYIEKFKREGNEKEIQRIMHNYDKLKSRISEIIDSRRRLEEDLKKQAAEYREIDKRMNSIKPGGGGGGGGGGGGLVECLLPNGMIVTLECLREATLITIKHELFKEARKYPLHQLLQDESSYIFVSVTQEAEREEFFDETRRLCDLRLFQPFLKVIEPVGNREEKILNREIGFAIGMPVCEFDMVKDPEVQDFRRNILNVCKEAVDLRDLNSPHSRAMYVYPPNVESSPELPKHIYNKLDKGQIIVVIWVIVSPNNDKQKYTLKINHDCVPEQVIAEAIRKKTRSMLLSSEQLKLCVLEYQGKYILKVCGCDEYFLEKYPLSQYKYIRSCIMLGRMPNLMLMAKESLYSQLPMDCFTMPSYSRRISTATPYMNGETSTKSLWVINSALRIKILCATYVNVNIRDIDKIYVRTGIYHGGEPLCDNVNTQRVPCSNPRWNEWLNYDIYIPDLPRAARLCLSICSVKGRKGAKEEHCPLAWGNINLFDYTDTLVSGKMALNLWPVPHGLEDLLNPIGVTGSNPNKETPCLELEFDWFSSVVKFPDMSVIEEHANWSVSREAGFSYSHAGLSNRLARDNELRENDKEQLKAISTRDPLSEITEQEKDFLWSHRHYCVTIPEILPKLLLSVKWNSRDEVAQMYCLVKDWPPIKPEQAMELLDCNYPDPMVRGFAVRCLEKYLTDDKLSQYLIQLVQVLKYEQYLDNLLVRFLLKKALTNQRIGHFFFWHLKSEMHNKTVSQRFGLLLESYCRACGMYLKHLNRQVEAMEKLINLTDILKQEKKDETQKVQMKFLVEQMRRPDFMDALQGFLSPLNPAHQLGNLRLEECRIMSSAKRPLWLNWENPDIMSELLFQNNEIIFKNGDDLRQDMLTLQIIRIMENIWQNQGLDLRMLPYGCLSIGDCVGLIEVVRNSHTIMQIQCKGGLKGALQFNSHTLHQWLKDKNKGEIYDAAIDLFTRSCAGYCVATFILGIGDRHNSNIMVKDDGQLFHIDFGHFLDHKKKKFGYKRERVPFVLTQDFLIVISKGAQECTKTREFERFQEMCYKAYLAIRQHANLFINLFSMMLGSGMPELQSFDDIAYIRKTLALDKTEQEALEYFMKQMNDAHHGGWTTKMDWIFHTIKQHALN
- method summary: PI3K alpha kinase assay (Kinase-Glo luminescence)
readout kind: IC50 (nM)

Some solved cases for reference:
CCn1cc(-n2c(=O)n(C)c3cnc4ccc(-c5cnc(COC)c(NC)c5)cc4c32)c(C)n1 : 39
Cc1nn(C)cc1-n1c(=O)n(C)c2cnc3ccc(-c4cccc(OC(C)C)c4)cc3c21 : 39

[A] CCOC(C)(C)c1cncc(-c2ccc3ncc4c(c3c2)n(-c2cn(C)nc2C)c(=O)n4C)c1
[B] Cc1nn(C)cc1-n1c(=O)n(C)c2cnc3ccc(-c4cccc(N(C)S(C)(=O)=O)c4)cc3c21
Sort A and B by IC50 descending and give the first. Your answer should be the label attached to the chosen record.
B
(B: 58 nM, A: 6 nM)

* * *

- subject of test: PI3K delta (Homo sapiens)
- Construct: for the full-length p110-d subunit are generated and fused by overlapping PCR; p85(iSH2) fusion partner (see partner chain) (N); His tag (C); Tn5 (Trichoplusia ni) or TiniPro insect cells
- method summary: PI3K delta kinase assay (Kinase-Glo luminescence)
readout kind: IC50 (nM)

In the examples that follow, each entry is paired with its recorded IC50.
CCNc1cc(-c2ccc3ncc4c(c3c2)n(-c2c(C)nn(CC(=O)N(C)C)c2C)c(=O)n4C)cnc1C [Example 87.5] : 35
Cc1nn(C)cc1-n1c(=O)n(C)c2cnc3ccc(-c4cccc(O)c4)cc3c21 [Example 32.1] : 47

[I] CCn1cc(-n2c(=O)n(C)c3cnc4ccc(-c5ccc(OCCOC)c(OC)c5)cc4c32)c(C)n1 [Example 30.2]
[II] Cc1nn(C)cc1-n1c(=O)n(C)c2cnc3ccc(-c4cnccn4)cc3c21 [Example 115]
[III] CCOc1cc(-c2ccc3ncc4c(c3c2)n(-c2cn(CC)nc2C)c(=O)n4C)ccc1OC [Example 28.1]
[IV] CCN(C)c1cncc(-c2ccc3ncc4c(c3c2)n(-c2cn(C)nc2C)c(=O)n4C)c1 [Example 176]
// smallest IC50 at index 0, largest at the end Note for the reader: the ranking is given by listing the labels in the order requested.
III, IV, I, II

* * *

Each item that follows carries a reported solubility.
- method summary: Solubility at pH 6.8
- Assay type: physicochemical
- recorded conditions: pH 6.8, aqueous buffer, thermodynamic from solid; read-out: solubility

CCOc1ncc(-c2ccc3ncc4c(c3c2)n(-c2cn(C)nc2C)c(=O)n4C)cc1N(C)C(C)=O : > 486 µg/mL

Consider the compound CCOc1cc(-c2ccc3ncc4c(c3c2)n(-c2c(C)nn(CCOC)c2C)c(=O)n4C)cnc1C and give its measured solubility.
> 487 µg/mL

Please do the same for CCOc1ccc(-c2ccc3ncc4c(c3c2)n(-c2c(C)nn(CC(=O)N(C)C)c2C)c(=O)n4C)cn1 as well.
> 500 µg/mL

* * *

- subject of test: PI3K alpha (Homo sapiens, UniProt P42336)
- Construct: p85(iSH2) fusion partner (see partner chain) (N); His tag (C); Tn5 (Trichoplusia ni) or TiniPro insect cells
- method summary: PI3K alpha kinase assay (Kinase-Glo luminescence)
pIC50: −log10 of the molar value.
readout kind: pIC50

Cc1nn(C)cc1-n1c(=O)n(C)c2cnc3ccc(-c4cncc(CNS(C)(=O)=O)c4)cc3c21 : 7.36

[P] CCOc1cc(-c2ccc3ncc4c(c3c2)n(-c2c(C)nn(CCOC)c2C)c(=O)n4C)cnc1C
[Q] Cc1nn(C)cc1-n1c(=O)n(C)c2cnc3ccc(-c4cnc5[nH]ccc5c4)cc3c21
Form field 'greater pIC50' accepts P or Q ; which applies? Output the label that corresponds to your choice.
Q
(Q: 8.05, P: 7.34)

* * *

- subject of test: PI3K beta (Homo sapiens)
- Construct: for the full-length p110-b subunit are generated and fused by overlapping PCR; p85(iSH2) fusion partner (see partner chain) (N); His tag (C); Tn5 (Trichoplusia ni) or TiniPro insect cells
- Sequence (P42338 with tags, fused parts or gaps limits assumed): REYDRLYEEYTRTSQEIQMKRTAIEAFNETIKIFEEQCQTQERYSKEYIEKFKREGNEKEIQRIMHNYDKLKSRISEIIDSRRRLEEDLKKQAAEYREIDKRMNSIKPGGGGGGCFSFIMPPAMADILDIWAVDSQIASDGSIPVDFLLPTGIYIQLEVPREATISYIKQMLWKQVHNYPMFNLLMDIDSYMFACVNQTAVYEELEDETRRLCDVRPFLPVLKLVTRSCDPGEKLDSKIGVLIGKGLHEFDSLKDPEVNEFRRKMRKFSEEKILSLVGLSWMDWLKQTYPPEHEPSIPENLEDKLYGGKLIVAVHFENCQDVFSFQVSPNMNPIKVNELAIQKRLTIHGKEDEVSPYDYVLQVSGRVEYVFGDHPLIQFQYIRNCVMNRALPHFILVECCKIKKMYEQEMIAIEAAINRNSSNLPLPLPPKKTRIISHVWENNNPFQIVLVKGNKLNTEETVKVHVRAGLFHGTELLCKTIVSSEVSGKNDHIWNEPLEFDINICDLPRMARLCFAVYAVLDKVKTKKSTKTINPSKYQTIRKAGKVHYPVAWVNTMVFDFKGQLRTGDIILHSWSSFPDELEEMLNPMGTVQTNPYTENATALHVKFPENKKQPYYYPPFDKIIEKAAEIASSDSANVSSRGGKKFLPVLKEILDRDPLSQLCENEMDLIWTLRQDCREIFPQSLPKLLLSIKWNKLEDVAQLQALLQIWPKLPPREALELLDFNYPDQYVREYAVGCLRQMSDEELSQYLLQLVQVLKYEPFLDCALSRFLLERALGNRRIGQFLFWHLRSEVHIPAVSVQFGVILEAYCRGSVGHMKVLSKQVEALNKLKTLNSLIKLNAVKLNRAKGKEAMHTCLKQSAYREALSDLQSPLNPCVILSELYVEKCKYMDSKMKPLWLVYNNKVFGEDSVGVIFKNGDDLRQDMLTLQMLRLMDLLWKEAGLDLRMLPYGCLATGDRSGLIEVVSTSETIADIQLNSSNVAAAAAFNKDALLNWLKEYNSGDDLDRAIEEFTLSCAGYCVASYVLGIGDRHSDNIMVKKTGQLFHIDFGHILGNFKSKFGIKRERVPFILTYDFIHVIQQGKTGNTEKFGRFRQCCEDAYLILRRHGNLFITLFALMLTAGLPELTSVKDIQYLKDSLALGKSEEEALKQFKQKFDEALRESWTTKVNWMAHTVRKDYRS
- method summary: PI3K beta kinase assay (Kinase-Glo luminescence)
- Method: In a more preferred assay, the kinase reaction is performed in a final volume of 10 μL per well of a low volume non binding CORNING, 384 well black plate (Cat. No. #3676). The final concentrations of ATP and phosphatidyl inositol (PI) in the assay are 1 μM and 10 μg/mL respectively. […] IC50 is determined by a four parameter curve fitting routine that comes along with “excel fit”. […] Alternatively, IC50 values are calculated using idbsXLfit model 204, which is a 4 parameter logistic model.
pIC50: −log10 of the molar value.
readout kind: pIC50

Recorded results for 2 molecules are shown here.
CCNc1ncc(-c2ccc3ncc4c(c3c2)n(-c2c(C)nn(C)c2C)c(=O)n4C)cc1C(F)(F)F : 6.79
Cc1nn(C(C)C)cc1-n1c(=O)n(C)c2cnc3ccc(-c4cnc(Cl)c(N)c4)cc3c21 : 7.10

[A] Cc1nn(C)cc1-n1c(=O)n(C)c2cnc3ccc(-c4cnc(N)nc4)cc3c21
[B] CNc1cc(-c2ccc3ncc4c(c3c2)n(-c2cn(C)nc2C)c(=O)n4C)cnc1CO
Between A and B , whose recorded pIC50 is greater? Provide the label of your selected option as the answer.
B
(B: 8.00, A: 7.04)

* * *

- subject of test: mTOR (Homo sapiens, UniProt P42345)
- Sequence (P42345 1360-2549 limits assumed): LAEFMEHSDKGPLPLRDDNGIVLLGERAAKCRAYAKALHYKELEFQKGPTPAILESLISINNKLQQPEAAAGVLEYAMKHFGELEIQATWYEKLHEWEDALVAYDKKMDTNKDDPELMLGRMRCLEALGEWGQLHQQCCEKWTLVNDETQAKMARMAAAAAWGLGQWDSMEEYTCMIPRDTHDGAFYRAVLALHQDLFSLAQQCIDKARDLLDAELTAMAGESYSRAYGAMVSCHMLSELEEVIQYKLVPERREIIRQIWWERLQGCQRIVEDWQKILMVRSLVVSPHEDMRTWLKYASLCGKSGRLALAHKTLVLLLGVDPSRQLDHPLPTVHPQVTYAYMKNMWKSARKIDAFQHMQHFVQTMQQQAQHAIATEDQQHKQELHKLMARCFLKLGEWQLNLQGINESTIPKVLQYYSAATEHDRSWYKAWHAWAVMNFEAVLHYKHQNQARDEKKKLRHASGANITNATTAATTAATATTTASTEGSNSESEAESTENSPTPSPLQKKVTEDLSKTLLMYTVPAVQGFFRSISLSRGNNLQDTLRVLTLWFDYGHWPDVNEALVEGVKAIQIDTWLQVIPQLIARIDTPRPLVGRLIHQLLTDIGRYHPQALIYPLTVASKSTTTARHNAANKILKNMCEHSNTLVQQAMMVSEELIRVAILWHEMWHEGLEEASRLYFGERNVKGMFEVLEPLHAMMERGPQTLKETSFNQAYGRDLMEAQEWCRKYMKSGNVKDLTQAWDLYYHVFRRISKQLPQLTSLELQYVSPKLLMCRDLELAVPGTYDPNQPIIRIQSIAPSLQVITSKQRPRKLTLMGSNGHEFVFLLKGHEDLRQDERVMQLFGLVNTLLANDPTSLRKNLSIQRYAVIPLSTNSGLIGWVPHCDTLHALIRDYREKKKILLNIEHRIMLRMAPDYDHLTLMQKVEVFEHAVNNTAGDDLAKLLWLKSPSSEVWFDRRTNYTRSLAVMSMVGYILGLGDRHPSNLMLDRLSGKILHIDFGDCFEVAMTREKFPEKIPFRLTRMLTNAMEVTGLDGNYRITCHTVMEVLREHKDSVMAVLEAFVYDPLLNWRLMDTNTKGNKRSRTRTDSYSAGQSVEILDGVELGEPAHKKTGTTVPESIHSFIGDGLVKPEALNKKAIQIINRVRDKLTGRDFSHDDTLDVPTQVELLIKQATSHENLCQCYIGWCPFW
readout kind: IC50 (µM)

CCc1ncc(-c2ccc3ncc4c(c3c2)n(-c2cn(C)nc2C)c(=O)n4C)cc1NC(C)C : 0.003
Cc1nn(C)cc1-n1c(=O)n(C)c2cnc3ccc(-c4cccc(N(C)S(C)(=O)=O)c4)cc3c21 : 0.47
CCn1cc(-n2c(=O)n(C)c3cnc4ccc(-c5cnc(N(C)C)nc5)cc4c32)c(C)n1 : 0.033
Cc1nn(C)cc1-n1c(=O)n(C)c2cnc3ccc(-c4cnc5c(c4)nc(N(C)C)n5C)cc3c21 : 0.081

[I] CCn1cc(-n2c(=O)n(C)c3cnc4ccc(-c5cncc(C(C)(C)O)c5)cc4c32)c(C)n1
[II] CCN(C)c1ccc(-c2ccc3ncc4c(c3c2)n(-c2cn(CC)nc2C)c(=O)n4C)cn1
Lab notebook, comparison: I versus II , higher IC50 goes to which? Refer to your chosen entry by its label in the reply.
II
(II: 0.022 µM, I: 0.013 µM)

* * *

- method summary: Solubility at pH 6.8
- Type: physicochemical
- recorded conditions: pH 6.8, aqueous buffer, thermodynamic from solid; read-out: solubility
readout kind: solubility (µg/mL)

CCc1ncc(-c2ccc3ncc4c(c3c2)n(-c2cn(C)nc2C)c(=O)n4C)cc1O : 44
CNC(=O)c1ccc(-c2ccc3ncc4c(c3c2)n(-c2cn(C)nc2C)c(=O)n4C)cc1 : 19

[1] COc1cc(-c2ccc3ncc4c(c3c2)n(-c2cn(C)nc2Cl)c(=O)n4C)cnc1CO
[2] CCNc1cc(-c2ccc3ncc4c(c3c2)n(-c2c(C)nn(C)c2C)c(=O)n4C)cnc1CO
[3] COc1cc(-c2ccc3ncc4c(c3c2)n(-c2cn(CCO)nc2C)c(=O)n4C)cnc1C
[4] Cn1cc(-n2c(=O)n(C)c3cnc4ccc(-c5cncc(C(C)(C)C#N)c5)cc4c32)c(Cl)n1
[5] Cc1nn(CC(=O)N(C)C)c(C)c1-n1c(=O)n(C)c2cnc3ccc(-c4ccccc4)cc3c21
Order these by solubility, descending, and give the full ranking. Lab note: final answer is the ordered label list.
1, 2, 5, 4, 3
